These data points were gathered from PubChem BioAssay.

Test: inhibitors of mitochondrial cytochrome c release, biochemical, purified mitochondria (AID 1603);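 further: mouse liver mitochondria challenged with calcium chloride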
Settings: stronger effect = lower value
True if cytochrome c release ratio is below 1. False if not; exact matches included in False.

Request: Please determine if CN(C)[C@@H]1C(=O)C(C(N)=O)=C(O)[C@@]2(O)C(=O)C3=C(O)c4c(O)ccc(Cl)c4[C@@](C)(O)[C@H]3C[C@@H]12 is below 1 in terms of cytochrome c release ratio.
Response: True

Request: Try this compound too: CN=C1CN(O)C(c2ccccc2)=c2cc(Cl)ccc2=N1
Response: False

Request: Try this compound too: C=CCC1(C(C)CCC)C(=O)N=C(S)NC1=O (configuration not stated)
Response: True

Would you kindly look at the next entry?
Request: Please determine if CC(CCc1ccccc1)NC(C)C(O)c1ccc(O)cc1 (configuration not stated) is below 1 in terms of cytochrome c release ratio.
Response: True
